Biological target: hKv7.2/hKv7.3 (Homo sapiens, UniProt O43525+O43526)
Construct: P2A remnant (self-cleaving peptide between Kv7.3 and Kv7.2) (C)
Test: Thallium influx assay for potassium channel activation
Details: HEK-hKv7.2/hKv7.3 cells; FLIPR Potassium Assay kit; AUC readout normalized to a reference compound
readout_label: EC50 (nM)
Expressed in nM, but write only the number.

[Q] // query EC50 value for entry CC[C@H](NC(=O)CC(O)C(C)(C)C)c1cccc(OC(F)(F)F)c1 (single isomer, unassigned) [Example 8b]
[A] 3000

[Q] // query EC50 value for entry C[C@H](NC(=O)CC(C)(O)C1(F)CC1)c1cccc(OC(F)(F)F)c1 (single isomer, unassigned) [Example 15b]
[A] 11000

[Q] // query EC50 value for entry C[C@H](NC(=O)CC(C)(O)C(F)(F)F)c1cccc(OCC(F)(F)F)c1 (single isomer, unassigned) [Example 19a]
[A] 1700

[Q] // query EC50 value for entry C[C@H](NC(=O)CC(O)C1(C(F)F)CC1)c1cccc(OC(F)(F)F)c1 (single isomer, unassigned) [Example 14a]
[A] 2000

[Q] // query EC50 value for entry C[C@H](NC(=O)CC(O)C(C)(C)C)c1cccc(OCC(F)(F)F)c1 (single isomer, unassigned) [Example 2b]
[A] 1800

[Q] // query EC50 value for entry CC(C)C(O)(CC(=O)N[C@@H](C)c1cccc(OCC(F)(F)F)c1)C(F)(F)F (single isomer, unassigned) [Example 7b]
[A] 1500

[Q] // query EC50 value for entry CC(C)C(O)CC(=O)N[C@@H](C)c1cccc(OCC(F)(F)F)c1 (single isomer, unassigned) [Example 12a]
[A] 1600
